Measured values drawn from paper PMC4650670 for this set.

target: human cytoskeletal actin, filamentous (F-actin; β- and γ-actins) (human, UniProt P60709 1-375; P63261 1-375); assay: ITC; settings: both partners purified
property_name: pKd
Interpret pKd as the negative base-10 log of the concentration measured in mol/L.

Answer with reported pKd of VopV_(rep1) (residues 361-428 of the type III secretion effector VopV) (domain or fragment) WPEVKPAHRLITTSGNAKIDGNPGYRNARVDVDGQTVGYTRNERGGSQPQSSGVHTLQGSQQPSVEPS
7.26
